# System: monocytic THP1 cells infected with HIV VSV-G pseudotyped GFP-NEF reporter virus
# assay_text: cells
# Type: cell-based
# condition_info: Human immunodeficiency virus 1, THP-1, 24 h
Here the recorded pEC50 is given for each entry.
Convention used: pEC50 is expressed as -log10 of the molar concentration.

INSERT INTO measurements (compound, assayed_system, quantity_kind, obs_value) VALUES
  ('Cc1cc(/C=C/C#N)cc(C)c1Oc1nc(NC23CC(C#N)(C2)C3)nc2c1[C@H](C)N(c1cnn(C)c1)C2=O', 'monocytic THP1 cells infected with HIV VSV-G pseudotyped GFP-NEF reporter virus', 'pEC50', 7.82),
  ('Cc1cc(/C=C/C#N)cc(C)c1Oc1nc(NC23CC(C#N)(C2)C3)nc2nc3n(c12)CC1(CC1)CO3', 'monocytic THP1 cells infected with HIV VSV-G pseudotyped GFP-NEF reporter virus', 'pEC50', 7.44),
  ('Cc1cc(/C=C/C#N)cc(C)c1Oc1nc(NC23CC(C#N)(C2)C3)nc2c1C(O)(CF)N(C1CC1)C2=O (stereo not shown)', 'monocytic THP1 cells infected with HIV VSV-G pseudotyped GFP-NEF reporter virus', 'pEC50', 7.10);

// map Cc1cc(/C=C/C#N)cc(C)c1Oc1nc(NC23CC(C#N)(C2)C3)nc2c1c(C)nn2CCC(F)F to recorded pEC50 (system: monocytic THP1 cells infected with HIV VSV-G pseudotyped GFP-NEF reporter virus)
6.66

###

# Tested on: CD4 cells, isolated from healthy donor PMBCs, infected with HIV VSV-G pseudotyped GFP-GAG reporter virus
# assay_text: tissue or blood
# Assay type: cell-based
# condition_info: Homo sapiens, 72 h
quantity_kind: EC50
Quick note: unit goes after the number.

Known EC50 results, listed for orientation:
INSERT INTO results (smiles_string, obs_value) VALUES
  ('COc1ccc(Cn2cnc3nc(NC45CC(C#N)(C4)C5)nc(Oc4c(C)cc(/C=C/C#N)cc4C)c32)cc1', '87.7 nM'),
  ('Cc1cc(/C=C/C#N)cc(C)c1Oc1nc(NC23CC(C#N)(C2)C3)nc2c1nnn2C', '131 nM');

Attention now shifts to the item below.
Sample Cc1cc(/C=C/C#N)cc(C)c1Oc1nc(NC23CC(C#N)(C2)C3)nc2scnc12 — what was its EC50?
96.6 nM

###

# Test system: monocytic THP1 cells infected with HIV VSV-G pseudotyped GFP-NEF reporter virus
# assay_text: cells
# Assay type: cell-based
# condition_info: Human immunodeficiency virus 1, THP-1, 24 h
quantity_kind: pEC50
Friendly reminder that pEC50 comes from taking -log10 of the concentration in mol/L.

INSERT INTO results (compound, assayed_system, quantity_kind, obs_value) VALUES
  ('Cc1cc(/C=C/C#N)cc(C)c1Oc1nc(NC23CC(C#N)(C2)C3)nc2nc(-c3cnoc3)[nH]c12', 'monocytic THP1 cells infected with HIV VSV-G pseudotyped GFP-NEF reporter virus', 'pEC50', 6.56),
  ('Cc1cc(/C=C/C#N)cc(C)c1Oc1nc(NC23CC(C#N)(C2)C3)nc2nc(C)n(Cc3ccn[nH]3)c12 (single isomer, unassigned)', 'monocytic THP1 cells infected with HIV VSV-G pseudotyped GFP-NEF reporter virus', 'pEC50', 7.62),
  ('Cc1cc(/C=C/C#N)cc(C)c1Oc1nc(NC23CC(C#N)(C2)C3)nc2[nH]nc(Br)c12', 'monocytic THP1 cells infected with HIV VSV-G pseudotyped GFP-NEF reporter virus', 'pEC50', 7.60),
  ('Cc1cc(/C=C/C#N)cc(C)c1Oc1nc(NC23CC(C#N)(C2)C3)nc2c1C(C)N(CC#N)C2=O (centres unmarked)', 'monocytic THP1 cells infected with HIV VSV-G pseudotyped GFP-NEF reporter virus', 'pEC50', 6.73);

Query: pEC50; subject: Cc1cc(/C=C/C#N)cc(C)c1Oc1nc(NC23CC(C#N)(C2)C3)nc2c1C1(C)OCC[C@H](C)N1C2=O (some centres unmarked)
7.28

###

# pEC50 annotations
# Tested on: monocytic THP1 cells infected with HIV VSV-G pseudotyped GFP-NEF reporter virus
# assay_text: cells
# Format: cell-based
# condition_info: Human immunodeficiency virus 1, THP-1, 24 h
# reply with the number alone; pEC50 is -log10 of concentration in mol/L

INSERT INTO results (molecule, obs_value) VALUES
  ('Cc1cc(/C=C/C#N)cc(C)c1Oc1nc(NC23CC(C#N)(C2)C3)nc2c1C(C)(O)N(CC#N)C2=O (stereo not drawn)', 7.11),
  ('Cc1cc(/C=C/C#N)cc(C)c1Oc1nc(NC23CC(C#N)(C2)C3)nc2c1C1(C)OC[C@@H](F)CN1C2=O (stereo partly drawn)', 7.05);

Next molecule, please.
Query: pEC50; subject: Cc1cc(/C=C/C#N)cc(C)c1Oc1nc(NC23CC(C#N)(C2)C3)nc2nc(Nc3ccn(C)n3)[nH]c12
6.82

###

Measured pEC50, listed per entry for reference.
# System: CD4 cells, isolated from healthy donor PMBCs, infected with HIV VSV-G pseudotyped GFP-GAG reporter virus
# assay_text: tissue or blood
# Format: cell-based
# condition_info: Homo sapiens, 72 h
Bear in mind: pEC50 is minus log10 of a mol/L concentration; give just that figure.

// known answers, use as guide
INSERT INTO results (smiles_string, obs_value) VALUES
  ('Cc1cc(/C=C/C#N)cc(C)c1Oc1nc(NC23CC(C#N)(C2)C3)nc2c1CCO2', 7.09),
  ('Cc1cc(/C=C/C#N)cc(C)c1Oc1nc(NC23CC(C#N)(C2)C3)nc2nc(C(C)(F)F)n(C)c12', 7.11),
  ('Cc1nc2nc(NC34CC(C#N)(C3)C4)nc(Oc3c(C)cc(/C=C/C#N)cc3C)c2[nH]1', 7.07);

// switching to the query molecule
What measured pEC50 goes with Cc1cc(/C=C/C#N)cc(C)c1Oc1nc(NC23CC(C#N)(C2)C3)nc2c1CN(C)C2 ?
6.96

###

# System: monocytic THP1 cells infected with HIV VSV-G pseudotyped GFP-NEF reporter virus
# assay_text: cells
# Format: cell-based
# condition_info: Human immunodeficiency virus 1, THP-1, 24 h
pEC50 for assorted compounds
Field pEC50 (float): negative decimal logarithm of the concentration in molar.

INSERT INTO results (compound, obs_value) VALUES
  ('CCOc1nc2nc(NC34CC(C#N)(C3)C4)nc(Oc3c(C)cc(/C=C/C#N)cc3C)c2n1C', 7.06),
  ('Cc1cc(/C=C/C#N)cc(C)c1Oc1nc(NC23CC(C#N)(C2)C3)nc2nn(C)nc12', 7.10),
  ('COCn1cc(N2C(=O)c3nc(NC45CC(C#N)(C4)C5)nc(Oc4c(C)cc(/C=C/C#N)cc4C)c3C2C)cn1 (centres unmarked)', 7.42);

Could you tell me which pEC50 is on file for CO[C@@H]1COC2(C)c3c(Oc4c(C)cc(/C=C/C#N)cc4C)nc(NC45CC(C#N)(C4)C5)nc3C(=O)N2C1 (single isomer, unassigned) ?
6.95

Param item: Cc1cc(/C=C/C#N)cc(C)c1Oc1nc(NC23CC(C#N)(C2)C3)nc2c1C(C)N(CCc1cnn(C)c1)C2=O (centres unmarked)
7.26

Now the compound CCOC1NC(=O)c2nc(NC34CC(C#N)(C3)C4)nc(Oc3c(C)cc(/C=C/C#N)cc3C)c21 (centres unmarked)
7.53

What about Cc1cc(/C=C/C#N)cc(C)c1Oc1nc(NC23CC(C#N)(C2)C3)nc2nc(-c3cncnc3)[nH]c12 ?
6.51

Now the compound Cc1cc(/C=C/C#N)cc(C)c1Oc1nc(NC23CC(C#N)(C2)C3)nc2c1/C(=C/F)NC2=O
7.21

###

# Tested on: monocytic THP1 cells infected with HIV VSV-G pseudotyped GFP-NEF reporter virus
# assay_text: cells
# Type: cell-based
# condition_info: Human immunodeficiency virus 1, THP-1, 24 h
Catalogue of pEC50 values
In simple prose, pEC50 is minus the logarithm base ten of a concentration in moles per litre.

In the examples that follow, each entry is paired with its recorded pEC50.
INSERT INTO results (smiles_string, assayed_system, obs_value) VALUES
  ('Cc1cc(/C=C/C#N)cc(C)c1Oc1nc(NC23CC(C#N)(C2)C3)nc2c1c(C(F)F)nn2C', 'monocytic THP1 cells infected with HIV VSV-G pseudotyped GFP-NEF reporter virus', 7.42),
  ('Cc1cc(/C=C/C#N)cc(C)c1Oc1nc(NC23CC(C#N)(C2)C3)nc2ncn(C(F)F)c12', 'monocytic THP1 cells infected with HIV VSV-G pseudotyped GFP-NEF reporter virus', 8.25),
  ('Cc1cc(/C=C/C#N)cc(C)c1Oc1nc(NC23CC(C#N)(C2)C3)nc2nc(Nc3cccnc3)[nH]c12', 'monocytic THP1 cells infected with HIV VSV-G pseudotyped GFP-NEF reporter virus', 6.30),
  ('Cc1cc(/C=C/C#N)cc(C)c1Oc1nc(NC23CC(C#N)(C2)C3)nc2nc(C(F)F)[nH]c12', 'monocytic THP1 cells infected with HIV VSV-G pseudotyped GFP-NEF reporter virus', 6.46);

Query molecule follows.
Hi! What's the reported pEC50 for COc1n[nH]c2c(Oc3c(C)cc(/C=C/C#N)cc3C)nc(NC34CC(C#N)(C3)C4)nc12 on monocytic THP1 cells infected with HIV VSV-G pseudotyped GFP-NEF reporter virus?
7.25
